# Tested system: PPARγ R288A mutant LBD (Homo sapiens, UniProt P37231, R316A)
# Construct: LBD, residues 195–477 in PPARγ1 numbering
# Protocol summary: ([…] Å) and SPR (Biacore T200)
pKd: −log10 of the molar value.

{"Molecule": "Cc1ccc(NC(=O)c2ccc(CN3CCN(C)CC3)cc2)cc1Nc1nccc(-c2cccnc2)n1 [imatinib]", "pKd": 6.82}
